conditions: in acetone, 318.15 K
quantityName: solubility (mole fraction)
Answer field: number only, no words.

// recorded solubility (mole fraction) for Cc1cc(C(=O)O)ccc1[N+](=O)[O-] : 0.0372

---

details: in ethanol, 313.15 K
quantityName: solubility (mole fraction)
Answer field: number only, no words.

// recorded solubility (mole fraction) for Cc1cc(C(=O)O)ccc1[N+](=O)[O-] : 0.0138

---

details: in acetone, 298.15 K
quantityName: solubility (mole fraction)
Answer field: number only, no words.

// recorded solubility (mole fraction) for Cc1cc(C(=O)O)ccc1[N+](=O)[O-] : 0.026

---

details: in NMP, 285.65 K
quantityName: solubility (mole fraction)
Answer field: number only, no words.

// recorded solubility (mole fraction) for Cc1cc(C(=O)O)ccc1[N+](=O)[O-] : 0.0872

Just for reference, BigSolDB 2.1 is where these values come from.
